target: Thermus thermophilus xylose isomerase, wild type (nucleic acid sequence SEQ ID NO: 2) (Thermus thermophilus)
Sequence (P26997 whole entry): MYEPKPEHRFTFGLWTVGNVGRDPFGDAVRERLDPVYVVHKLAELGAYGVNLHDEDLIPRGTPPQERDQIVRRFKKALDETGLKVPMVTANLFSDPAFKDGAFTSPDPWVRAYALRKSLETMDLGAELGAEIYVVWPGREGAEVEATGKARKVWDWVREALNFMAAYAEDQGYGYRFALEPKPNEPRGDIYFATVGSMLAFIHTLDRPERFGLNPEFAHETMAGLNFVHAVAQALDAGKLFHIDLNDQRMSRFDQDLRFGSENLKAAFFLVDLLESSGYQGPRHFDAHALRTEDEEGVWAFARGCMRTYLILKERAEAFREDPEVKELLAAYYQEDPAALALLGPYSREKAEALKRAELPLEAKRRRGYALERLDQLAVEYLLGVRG
MEASURED ATTRIBUTE: Ki (mM)
# output: bare number, implied unit mM

In: What value of Ki has been recorded for this entry: `OC[C@@H](O)[C@H](O)[C@@H](O)CO`
Out: 4.6

====

target: Thermus thermophilus xylose isomerase (xylA), mutant 1021 (M1021) (Thermus thermophilus, UniProt P26997, E372G/V379A); test: Kinetic characterisation of mutant xylose isomerase 1021 (xylose/glucose isomerase activity, xylitol inhibition)
Sequence (P26997 whole entry E372G/V379A): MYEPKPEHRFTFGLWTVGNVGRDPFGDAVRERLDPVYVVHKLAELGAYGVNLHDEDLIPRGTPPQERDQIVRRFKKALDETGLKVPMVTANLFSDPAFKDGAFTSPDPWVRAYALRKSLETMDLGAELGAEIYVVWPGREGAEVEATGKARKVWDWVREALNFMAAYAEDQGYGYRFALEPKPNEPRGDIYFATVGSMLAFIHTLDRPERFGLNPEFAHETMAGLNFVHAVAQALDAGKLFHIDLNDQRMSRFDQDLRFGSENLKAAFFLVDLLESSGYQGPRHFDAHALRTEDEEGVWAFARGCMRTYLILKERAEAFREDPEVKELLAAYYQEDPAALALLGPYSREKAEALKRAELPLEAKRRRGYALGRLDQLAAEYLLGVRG
MEASURED ATTRIBUTE: Ki (mM)
# output: bare number, implied unit mM

In: What value of Ki has been recorded for this entry: `OC[C@@H](O)[C@H](O)[C@@H](O)CO`
Out: 33.2

====

biological target: Thermus thermophilus xylose isomerase (xylA), mutant 1010 (M1010) (Thermus thermophilus); details: read-out: Ki xylitol; mutant 1010, xylose 20-400 mM, fixed xylitol concentrations
MEASURED ATTRIBUTE: Ki (mM)
# output: bare number, implied unit mM

In: Test system Thermus thermophilus xylose isomerase (xylA), mutant 1010 (M1010) (Thermus thermophilus); read-out Ki; what value for `OC[C@@H](O)[C@H](O)[C@@H](O)CO` ?
Out: 10.1
